System: CEM cells HIV-1 protection, formazan growth assay
Experiment: NCI AIDS Antiviral Assay
Conditions: measured here: growth of uninfected CEM cells
Where a SMILES comes first, the peptide text is derived from it.
Assay readout: IC50

Cc1ccc(C)c(NC(=O)CCc2n[nH]c(=S)o2)c1: > 9.33 µM
CCC(C)C(NC(=O)CNC(=O)CN)C(=O)NCC(=O)NCC(=O)O (stereo not given) (HELM PEPTIDE1{G.G.[CCC(C)C(N[*:1])C(=O)[*:2]].G.G}$$$$V2.0): > 69.2 µM
Nc1ncnc2nc(CO)[nH]c12: > 158 µM
N#CC1(C#N)OC12CCS(=O)(=O)c1ccccc12 (stereo not given): 89.1 µM

Can you share its IC50? I mean this compound: CC(=O)NCCCCN(CCCNC(C)=O)C(=O)CNS(=O)(=O)c1cccc2c(N(C)C)cccc12
> 200 µM

Next compound up: O=C1C2C(C(=O)N1c1ccccc1)C1(c3ccccc3)CCC2(C(=O)c2ccccc2)O1 (stereo not given)
50.1 µM

Next compound up: Nc1ccc(C(=O)N2CCC[C@H]2CO)c(N)c1
> 200 µM

====

System: CEM cells HIV-1 protection, formazan growth assay
Test: NCI AIDS Antiviral Assay
Settings: measured here: growth of uninfected CEM cells
Assay readout: IC50

Please review the following examples before continuing.
CCOC(=O)/C(C#N)=C/c1ccc(OC)cc1: > 155 µM
NC(=O)c1cc(N(CCO)CCO)c([N+](=O)[O-])cc1[N+](=O)[O-]: > 200 µM
COc1ccc(C(=O)C(C(=O)CC(=O)Nc2cccc(C(F)(F)F)c2)c2ccc(OC)cc2)cc1 (stereo unspecified): > 14.8 µM

Can you share its IC50? I mean this compound: COc1ccc(/C=C(/NC(=O)c2ccccc2)C(=O)Nc2ccccc2)cc1OC
> 200 µM

Next compound up: CCCCCCCCCCCCSSC(=S)OC(C)C
> 200 µM

Next compound up: Cc1c(C(=O)C/C(=N/NC(=O)c2ccccc2O)C(=O)Nc2ccccc2C(C)C)[n+](=O)c2ccccc2n1[O-]
> 6.92 µM

====

Overview of recorded IC50 for various molecules
Test system: CEM cells HIV-1 protection, formazan growth assay
Experiment: NCI AIDS Antiviral Assay
Details: measured here: growth of uninfected CEM cells

Please review the following examples before continuing.
CC(=O)OC1CCN(C)CC1CCl (stereo not given): > 200 µM
N=C(OC1CCCCC1)N1CCCC1: > 200 µM
CCOC(=O)C(Cc1cn(S(=O)(=O)c2ccc(C)cc2)cn1)P(=O)(OCC)OCC (stereo not given): > 200 µM
Clc1ccc(CSc2nnc(SCc3ccc(Cl)c(Cl)c3)c3[nH]cnc23)cc1Cl: 12.6 µM

Now look at this one.
Can you share its IC50? I mean this molecule: CC(=O)OC(C)(C)CCC(=O)[C@](C)(O)[C@H]1[C@H](O)C[C@@]2(C)[C@@H]3CC=C4C(C)=C(OC5OC(CO)C(O)C(O)C5O)C(=O)C[C@@H]4[C@]3(C)C(=O)C[C@]12C (stereo not given in full)
> 200 µM

====

System: CEM cells HIV-1 protection, formazan growth assay
Test: NCI AIDS Antiviral Assay
Settings: measured here: growth of uninfected CEM cells
Assay readout: IC50 (µM)
Numbers only; they are read as µM.

Please review the following examples before continuing.
N#C/C(=C/NC(=S)Nc1ccc(Cl)c(Cl)c1)C(N)=O: 38
CCOP(=O)(OCC)/C(C#N)=C/c1cccc([N+](=O)[O-])c1: 166

So what IC50 did O=c1c(O)c(-c2cc(O)c(O)c(O)c2)oc2cc(O)ccc12 get with CEM cells HIV-1 protection, formazan growth assay?
11.7

====

Tested on: CEM cells HIV-1 protection, formazan growth assay
Assay: NCI AIDS Antiviral Assay
Settings: measured here: growth of uninfected CEM cells
Assay readout: IC50 (µM)
Numbers only; they are read as µM.

O=C1C2=C(SCCS2)C(=O)c2ccccc21: 0.676
CCCC(CC)c1c(O)c(O)c(C(CC)CCC)c(C(CC)CCC)c1C(CC)CCC (stereo unspecified): 15.5
O=c1oc(-c2ccccc2Br)ns1: 52.5
CCSC1=CC(Cc2ccc(OC)cc2)N(C(=O)OC)C1 (stereo unspecified): 60.3

Now look at this one.
Can you share its IC50? I mean this molecule: CC(=O)NC1C(OCc2ccccc2)OC(CO)C(O)C1OC(C)C(=O)NC(C(=O)NC(CCC(=O)NCCCCNc1c2ccccc2nc2cccc([N+](=O)[O-])c12)C(N)=O)C(C)C (stereo unspecified)
1.12

====

Test system: CEM cells HIV-1 protection, formazan growth assay
Assay: NCI AIDS Antiviral Assay
Conditions: measured here: growth of uninfected CEM cells
pIC50: −log10 of the molar value.
Overview of recorded pIC50 for various compounds

CC(=S)N=Cc1c(O)[nH]c(=O)[nH]c1=O: < 3.70
O=C(CCCn1cnc([N+](=O)[O-])n1)NCCCn1ccnc1[N+](=O)[O-]: < 3.70
Cn1c(=N)c2cnn(-c3ccccc3)c2n(C)c1=O: < 3.31

Now look at this one.
Can you share its pIC50? I mean this compound: O=S1(=O)C2CCCC1C(Cl)CC2 (centres undefined)
< 4.32

====

System: CEM cells HIV-1 protection, formazan growth assay
Assay: NCI AIDS Antiviral Assay
pEC50: −log10 of the molar value.
Assay readout: pEC50

Please review the following examples before continuing.
O=c1[nH]c2cc(Cl)ccc2c(O)c1Cc1c(O)c2ccc(Cl)cc2[nH]c1=O: < 4.00
CC(C)(C)[Si](C)(C)OCC1OC(n2ccc(=O)[nH]c2=O)C(O[Si](C)(C)C(C)(C)C)[C@@]12N[C@H](C(N)=O)CS2=O (stereo partly specified): < 3.70
c1ccc(P(OCCCCOP(c2ccccc2)c2ccccc2)c2ccccc2)cc1: < 3.70

So what pEC50 did CS(=O)(=O)N/N=C/CN1C(=O)c2ccccc2C1=O get with CEM cells HIV-1 protection, formazan growth assay?
< 3.05

Next molecule up: CC1CCCN(CC(O)CN2CCN(CC(O)CN3CCCC(C)C3)C(C)C2)C1 (stereo unspecified)
< 3.50

Next molecule up: COc1ccc2oc(=O)c3c(c2c1C)OC(C)(C)C=C3
< 3.70

====

Overview of recorded IC50 for various molecules
Tested on: CEM cells HIV-1 protection, formazan growth assay
Test: NCI AIDS Antiviral Assay
Settings: measured here: growth of uninfected CEM cells
Numbers only; they are read as µM.

Please review the following examples before continuing.
CC1=CC[C@H](C[C@H](C#CCCCC2OCCO2)O[Si](C(C)C)(C(C)C)C(C)C)C(=O)CC1: 9.77
Oc1cc2cccc[n+]2c2cccc(Cl)c12: 34.7

Now look at this one.
Can you share its IC50? I mean this molecule: CC(C)(C)OC(=O)C(C#N)C(=O)c1ccc(C(=O)O)[nH]1 (stereo not given)
23.4

====

Test system: CEM cells HIV-1 protection, formazan growth assay
Experiment: NCI AIDS Antiviral Assay
Conditions: measured here: growth of uninfected CEM cells
pIC50: −log10 of the molar value. Where a SMILES comes first, the peptide text is derived from it. The star is where a group is joined. Cbz = O=C(OCc1ccccc1)*
Assay readout: pIC50

Nc1nc2c(ncn2C2OC(CO)(C(F)(F)F)C(O)C2O)c(=O)[nH]1 (stereo not given): < 3.70
CCOC(=O)N(C)C(=C(F)F)C(F)(F)F: < 3.70
O=C(O)C(CO)NC(=O)C1CCCN1C(=O)OCc1ccccc1 (stereo not drawn) (Cbz-Pro-Ser-OH; configuration not given here): < 4.11
CN(C)c1ccc(C=C2c3ccccc3-c3ccccc32)cc1: < 4.76
O=C1NC(=O)C2C(=O)NC(=O)C1C2Cc1ccco1 (stereo not given): < 3.02

Can you share its pIC50? I mean this molecule: O=C(/C=C/c1ccc(Cl)cc1)c1ccc(Cl)c(Cl)c1
< 4.49

Next molecule up: Clc1c2ncccc2cc2n[nH]nc12
< 4.00

Next molecule up: O=C1c2cccc(O)c2C(=O)c2cccc(O)c21
< 5.36

Next molecule up: CC(C)CC(N)CO (stereo not given)
< 3.70

Next molecule up: O=C(O)c1ccccc1S
< 3.70

====

Tested on: CEM cells HIV-1 protection, formazan growth assay
Assay: NCI AIDS Antiviral Assay
Details: measured here: growth of uninfected CEM cells
pIC50: −log10 of the molar value.
Assay readout: pIC50

Please review the following examples before continuing.
O=C(NC/C(Br)=C/Br)Nc1cnc2ccccc2c1: 4.09
O=C1OC(c2ccccc2)=N/C1=C\c1c(O)cc(O)cc1O: < 4.06
c1ccc(-n2cnnc2-c2nsc3ccccc23)cc1: < 4.03
CCOC(=O)/C=C/c1ccccc1Cl: < 4.47
O=C1CCC2(c3ccccc3)Nc3cc([N+](=O)[O-])ccc3N12 (stereo unspecified): < 4.61

Now look at this one.
Can you share its pIC50? I mean this molecule: O=C(NC1C=Nc2ccccc2NC1=O)c1ccccc1Cl (stereo unspecified)
4.01
